# test-target: human recombinant ghrelin receptor (GHS-R1a) (Homo sapiens)
# Construct: host or cells: CHO-K1
# Sequence (Q92847 whole entry): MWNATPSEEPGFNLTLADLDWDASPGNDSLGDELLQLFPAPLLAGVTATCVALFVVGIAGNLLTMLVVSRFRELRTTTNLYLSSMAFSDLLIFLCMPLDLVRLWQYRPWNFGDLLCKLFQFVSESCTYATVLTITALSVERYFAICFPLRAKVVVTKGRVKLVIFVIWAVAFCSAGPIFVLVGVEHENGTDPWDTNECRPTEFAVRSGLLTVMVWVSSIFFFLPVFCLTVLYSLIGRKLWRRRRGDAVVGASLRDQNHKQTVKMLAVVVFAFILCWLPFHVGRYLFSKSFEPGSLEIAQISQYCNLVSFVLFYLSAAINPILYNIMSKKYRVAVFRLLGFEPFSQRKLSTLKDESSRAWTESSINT
# measurement-protocol: hGHS-R1a cAMP assay (HTRF cAMP dynamic 2 kit, CHO-hGHS-R1a cells)
# Assay type: cell-based
# test-context: 60 min incubation, dose response up to 30 μM
assay-metric: log10 EC50 (log10 of the value in µM)
Annotation: log10 of EC50, µM basis.

Req: // fetch human recombinant ghrelin receptor (GHS-R1a) (Homo sapiens) log10 EC50 for C[C@H](OCc1ccccc1)[C@@H](NC(=O)C(C)(C)N)C(=O)N1CCCC2(C1)C(=O)N(C)CC2c1ccccc1 (single isomer, unassigned)
Resp: -0.74

Req: Same for CN1N=C(c2ccccc2)C2(CCCN(C(=O)[C@@H](COCc3ccccc3)NC(=O)C(C)(C)N)C2)C1=O (mixture of isomers)
Resp: -0.41

Req: Please do the same for CC(C)(C)CN1CC(c2ccccc2)C2(CCCN(C(=O)[C@@H](COCc3ccccc3)NC(=O)C(C)(C)N)C2)C1=O (single isomer, unassigned) [Example 1.40] as well.
Resp: -1.47

Req: Same lookup for COc1ccc(COC[C@@H](NC(=O)C(C)(C)N)C(=O)N2CCCC3(C2)C(=O)N(C)CC3c2ccccc2)cc1 (single isomer, unassigned) , please.
Resp: -0.96

Req: // query: CC(C)N1CC(c2ccccc2)C2(CCCN(C(=O)[C@@H](COCc3ccccc3)NC(=O)C(C)(C)N)C2)C1=O (single isomer, unassigned)
Resp: -1.70

Origin of measurements: patent US8546416B2
